molecular target: Phosphatidylinositol 4-kinase, PI4K (Homo sapiens, UniProt Q9BTU6+Q8TCG2+Q9UBF8+P42356); assay: Binding affinity (Ki) against human phosphatidylinositol 4-kinase; assay type: protein assay
Parameter: Ki. Scope: all listed entries.
Recorded metric: Ki (µM)

Nc1ncnc2c1ncn2C1O[C@H](CI)[C@@H](O)[C@H]1O (some centres undefined): 15.9
CC1(C)O[C@@H]2[C@H](O1)[C@@H](CO)O[C@H]2n1cnc2c(N)ncnc21: 8.4
Nc1nc(N)c2[nH]c(-c3ccccc3)nc2n1: 137.7
CC(C)(C)Cn1cnc2c(N)ncnc21: 9
Nc1[nH]cnc2nc(-c3cccc4ccccc34)nc1-2: 89.5
CCCCCc1nc2[nH]cnc(N)c-2n1: 47.5
Nc1nc(N)c2nc[nH]c2n1.O=S(=O)(O)O: 101.2
Nc1ncnc2ccccc12: 63.4
CN(C)c1ncnc2nc[nH]c12: 150.2

###

biological target: Phosphatidylinositol 4-kinase, PI4K (Homo sapiens, UniProt Q9BTU6+Q8TCG2+Q9UBF8+P42356); format: protein assay
Description: Inhibitory activity (IC50) against human phosphatidylinositol 4-kinase at the ATP binding site
Recorded metric: log10 IC50 (log10 of the value in µM)

CN(C)c1ncnc2nc[nH]c12: 2.34
CCCCCc1nc2[nH]cnc(N)c-2n1: 1.84
Nc1ncnc2c1ncn2[C@@H]1O[C@H](COP(=O)(O)OP(=O)(O)O)[C@@H](O)[C@H]1O [ADENOSINE DIPHOSPHATE]: 2.16
Cn1ncc2c(N)ncnc21: 1.92
COc1cccc(-n2cnc3c(N)ncnc32)c1: 1.36
Cl.Nc1ncnc2nc[nH]c12: 2.26
Nc1ncnc2c1ncn2C1CCCCCC1: 0.86
Cc1ccccc1-n1cnc2c(N)ncnc21: 1.37
Nc1ncnc2c1ncn2-c1ccccc1F: 1.08
CC(C)(C)c1ccc(-n2cnc3c(N)ncnc32)cc1: 1.66
Nc1ncnc2c1ncn2C1O[C@H](CI)[C@@H](O)[C@H]1O (some centres not stated): 1.36
Nc1ncnc2c1ncn2C1CCCO1 (configuration not stated): 1.45
Cc1nc2[nH]cnc(N)c-2n1: 2.29
Cl.Nc1ncnc2nc(Br)[nH]c12: 2.33
Nc1ncnc2ccccc12: 1.96
CC1(n2cnc3c(N)ncnc32)CCCCC1: 0.86
COc1ccc(-n2cnc3c(N)ncnc32)cc1: 1.34
CC(C)(C)n1cnc2c(N)ncnc21: 1.01
Nc1[nH]cnc2nc(-c3ccccn3)nc1-2: 1.88
Nc1ncnc2c1ncn2-c1cccc(F)c1: 1.41
Cn1cnc2c(N)ncnc21: 2.21
Cl.Nc1[nH]cnc2nc(NCc3ccccc3)nc1-2: 2.12
Nc1ncnc2c1ncn2-c1cccc2ccccc12: 1.90
Nc1ncnc2c1nc(-c1ccccc1)n2-c1ccccc1: 1.21
Nc1nc(N)c2nc[nH]c2n1.O=S(=O)(O)O: 2.17
Cc1nc2c(N)ncnc2n1-c1ccccc1: 1.21
CC(C)(C)Cn1cnc2c(N)ncnc21: 1.11
CCCCCc1nc2c(N)ncnc2n1CCCCC: 2.10
Nc1ncnc2c1ncn2C1CCCC1: 0.94
Nc1ncnc2c1ncn2[C@@H]1O[C@H](CO)[C@@H](O)[C@H]1O: 1.48
CCC(CC)(CC)n1cnc2c(N)ncnc21: 2.13
Nc1ncnc2c1ncn2Cc1ccccc1: 1.93
Nc1ncnc2[nH]c(-c3ccccc3)nc12: 1.69
Nc1ncnc2c1nc1n2CCCC1: 1.72
CCCCCc1nc2c(N)ncnc2n1-c1ccccc1: 1.72
Nc1ncnc2c1ncn2-c1ccccc1: 1.19
CC(C)n1cnc2c(N)ncnc21: 1.17
c1ccc(CNc2ncnc3nc[nH]c23)cc1: 2.38
Nc1ncnc2scnc12: 2.07
Nc1nc(N)c2[nH]c(-c3ccccc3)nc2n1: 2.30
Nc1ncnc2cc3ccccc3cc12: 1.52
CC1(C)O[C@@H]2[C@H](O1)[C@@H](CO)O[C@H]2n1cnc2c(N)ncnc21: 1.08
Nc1ncnc2c1ncn2-c1cccnc1: 1.66
Cn1c(-c2ccccc2)nc2c(N)ncnc21: 1.54
Nc1ncnc2c1cnn2-c1ccccc1: 1.21
Nc1nc2ncnc-2c[nH]1: 2.53
CCn1cnc2c(N)ncnc21: 1.51
Nc1ncnc2c1ncn2C1CCCCC1: 0.78
Nc1ncnc2[nH]ncc12: 2.16
Nc1[nH]cnc2nc(-c3cccc4ccccc34)nc1-2: 2.11
Nc1ncnc2c1ncn2-c1ccc(Cl)cc1: 1.61
Nc1ncnc2c1ncn2C12CC3CC(CC(C3)C1)C2: 0.78
